Biological target: T1, Smad7 PY peptide Ac-ELESPPPPYSRYPMD-NH2 (203-217) (human)
T1 peptide: Ac-ELESPPPPYSRYPMD-NH2
Test: ITC
Known stoichiometry N of a selection of binders

>  <binder>
YAP WW1-WW2 pair (domain or fragment) SSFEIPDDVPLPAGWEMAKTSSGQRYFLNHIDQTTTWQDPRKAMLSQMNVTAPTSPPVQQNMMNSASGPLPDGWEQAMTQDGEIYYINHKNKTTSWLDPRLDPR

>  <stoichiometry N>
1

$$$$
>  <binder>
Smurf1 WW1-WW2 pair (domain or fragment) SPELPEGYEQRTTVQGQVYFLHTQTGVSTWHDPRIPRDLNSVNCDELGPLPPGWEVRSTVSGRIYFVDHNNRTTQFTDPRLH

>  <stoichiometry N>
0.7

$$$$
>  <binder>
DELGPLPPGWEVRSTVSGRIYFVDHNNRTTQFTDPRLH (domain or fragment, human, UniProt Q9HCE7-2 277-314, looked up) [Smurf1 WW2 domain (residues 277-314)]

>  <stoichiometry N>
1

$$$$
